test system: biotinylated HRP; assay: Model system for selection of SSIA (AK1/streptavidin BSA microparticles + biotinylated HRP); format: biochemical, horseradish; conditions: Btn-HRP 250 ng/mL, total HRP 500 ng/mL; SSIA 100 μM final
Would you mind telling me the reported light intensity, BTN-HRP250 of each entry?

Examples from the recorded data:
• N[C@@H](CCC(=O)N[C@@H](CS)C(=O)NCC(=O)O)C(=O)O = 9,965,235
• Cc1c(C)c2c(c(C)c1O)CCC(C)(C(=O)O)O2 (stereo not shown) = 10,794,247
• Oc1ccc(Cl)cc1O = 1,260,937
• COc1ccc2[nH]cc(CCNC(C)=O)c2c1 = 10,370,061
• Cl.Nc1ccc(O)cc1O [4-aminoresorcinol hydrochloride] = 259,541
• Cc1c(O)cc2c(c1C)O[C@](C)(CCC[C@H](C)CCC[C@H](C)CCCC(C)C)CC2 [(+)-gamma-Tocopherol] = 10,282,504
• COc1cc(/C=C/C(=O)O)ccc1O = 10,244,269
• NNC(=O)c1cccnc1 [Nicotinic Hydrazide] = 7,923,092
• O=c1[nH]c(=O)c2[nH]c(=O)[nH]c2[nH]1 = 10,708,733

API: the following record is the query input.
Look up light intensity, BTN-HRP250: Oc1ccc(O)c(Cl)c1 [2-chloro-1,4-dihydroxybenzene]
875,831

Values compiled from patent US9029092B2.
